Data origin, for the record: paper PMC7473865

- target-desc: recombinant HLA-DR401 (HLA-DRA1*01:01, HLA-DRB1*04:01) (Homo sapiens, UniProt P01903+P01911, A100K/A169T/F76Y/I96L/K127E/L162R/M171V/N62H/P40V/Q125Y/R42H/S133A/S149N/S66Y/V115G/V209L/W38E)
- Construct: poly-histidine (C); made in house; host or cells: High Five (Hi5) insect cells, baculovirus (pAcGP67a)
- assay-name: biochemical
- Type: binding
- condition-parameters: fluorescence polarization peptide competition, HLA-DR401; sheet Fig7; read-out: Measured IC50
Ends that are not written are not given here.
measured-parameter: IC50

* YSIEVLLVLDDSVVRFHGKE | > 50 µM
* EVKYCTFSKDRSKPIPGMTL | > 50 µM
* AAGFPGEQGPKGEPG | > 50 µM
